Entry source: patent US20170174769A1

experimental target: T1, full-length human FGFR1c on HEK293/hFGFR1c/SRE-luc cells (human, UniProt P11362 22-822)
T1 construct: amino acids 1-733 of NP_075593
T1 sequence (P11362 other isoform, or with tags, fused parts or gaps limits assumed): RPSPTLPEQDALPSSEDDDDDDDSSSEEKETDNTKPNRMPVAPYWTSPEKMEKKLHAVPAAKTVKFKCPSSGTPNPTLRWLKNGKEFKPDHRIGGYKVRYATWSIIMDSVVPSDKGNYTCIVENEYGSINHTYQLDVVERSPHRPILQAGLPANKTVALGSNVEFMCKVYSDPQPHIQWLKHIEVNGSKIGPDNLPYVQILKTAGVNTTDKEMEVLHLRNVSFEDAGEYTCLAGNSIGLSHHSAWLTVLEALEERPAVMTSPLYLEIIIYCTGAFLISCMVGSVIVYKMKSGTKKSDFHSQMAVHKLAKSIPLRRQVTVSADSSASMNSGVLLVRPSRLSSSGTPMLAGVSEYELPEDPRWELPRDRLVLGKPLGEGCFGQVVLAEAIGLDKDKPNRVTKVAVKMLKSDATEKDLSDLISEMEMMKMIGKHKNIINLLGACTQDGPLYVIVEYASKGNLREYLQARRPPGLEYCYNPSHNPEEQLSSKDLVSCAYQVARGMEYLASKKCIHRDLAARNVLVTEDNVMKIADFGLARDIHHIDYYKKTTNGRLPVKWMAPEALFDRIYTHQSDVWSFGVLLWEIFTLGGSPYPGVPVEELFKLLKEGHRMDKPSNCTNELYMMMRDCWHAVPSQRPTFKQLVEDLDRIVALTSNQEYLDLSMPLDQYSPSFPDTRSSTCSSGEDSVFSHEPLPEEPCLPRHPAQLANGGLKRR
measurement protocol: FACS on stable HEK293 cells
Items are presented alongside their recorded binding ratio to unstained cells.
Write it as a number; the unit fold goes unstated.

binder	binding ratio to unstained cells (fold)
H4H8871P (antibody, V domains shown, human IgG4 Fc (H4H prefix)) VH: QVQLQESGPGLVKPSETLSLTCTVSGASISSYYWSWIRQPPGKGLEWIGYIYSSGIIKYNPSLKSRVTISADTSKNQFSLKLSSVTAADTAVYYCARHGIFGVMEYFQRWGQGTLVTVSS VL: DIQMTQSPSSLSASIGDRVTITCQASQDIGNFLNWYHQKPGKAPTLLIYDASNMETGVPSRFRGSGSGTYFTFIISSLQPEDVATYYCQQYDNLPLTFGGGTKVEIK	1

**Q:** Please give the documented binding ratio to unstained cells of H4H8880P (antibody, V domains shown, human IgG4 Fc (H4H prefix)) VH: EVQLVESGGGVVQPGGSLRLSCAASGFTFSLYAMSWVRQAPGKGLEWVSAISGSAHGAYYADSVKGRFTISRDNSKNSLYLQMNSLRAEDTAIYYCAKDLVIAVAGTFDYWGQGTLVTVSS VL: DIQMTQSPSSLSASVGDRVTITCRASQIISTYLNWYQQKPGKAPKILIYTASSLKSGVPSRFSGSGSGTDFTLTISSLQPEDFATYYCQQTYSSPRFTFGPGTKVDIK
**A:** 2
